The reported numbers originate from PubChem BioAssay AID1508600.

assay: Components of the Cytosolic LPS Sensing Pathway: Gene Identification via Genome-wide siRNA Screen; conditions: RAW264.7 macrophages, IL-1a HTRF, actives lie on both sides, screened at 100 nM (by protocol), cells primed 5 h with Pam3CSK4 first
Out of some 53,000 sequences screened, about 3,700 (7%) were called active. Shown is part of a subset that was picked to be rich in actives.
Note to self: values exactly at 0.5 are Yes. So z-score at or above 0.5 is Yes, below is No.

Look over these answered cases.
• GUAUGACCAGAAGAAAAAGTT against Lrrc72 = No
• GGCCAUCAUUGUCACCGUGTT against Adra2a = Yes
• GGACAGAGAUCAAUAUUAATT against Rxfp3 = No

## Task Test whether the sequence GGUUUUUGUUGUAAUAGGCTT against Olfr915 records z-score of 0.5 or higher.
## Result No

## Task Decide: is the reported value of z-score for GGUAUGAUGAUUGUUAGAUTT against Phf20 equal to or greater than 0.5?
## Result No

## Task z-score >= 0.5 for GGCAUGCUUGGCUUAUUUGTT against Kcnk4 ?
## Result No

## Task Hello, I need to know if GGAAAGCUUGGACAUUAAGTT against Rps6kc1 has measured z-score not below 0.5. Thanks!
## Result No
